molecular target: UniProt Q13547
Sequence (Q13547 whole entry, species assumed): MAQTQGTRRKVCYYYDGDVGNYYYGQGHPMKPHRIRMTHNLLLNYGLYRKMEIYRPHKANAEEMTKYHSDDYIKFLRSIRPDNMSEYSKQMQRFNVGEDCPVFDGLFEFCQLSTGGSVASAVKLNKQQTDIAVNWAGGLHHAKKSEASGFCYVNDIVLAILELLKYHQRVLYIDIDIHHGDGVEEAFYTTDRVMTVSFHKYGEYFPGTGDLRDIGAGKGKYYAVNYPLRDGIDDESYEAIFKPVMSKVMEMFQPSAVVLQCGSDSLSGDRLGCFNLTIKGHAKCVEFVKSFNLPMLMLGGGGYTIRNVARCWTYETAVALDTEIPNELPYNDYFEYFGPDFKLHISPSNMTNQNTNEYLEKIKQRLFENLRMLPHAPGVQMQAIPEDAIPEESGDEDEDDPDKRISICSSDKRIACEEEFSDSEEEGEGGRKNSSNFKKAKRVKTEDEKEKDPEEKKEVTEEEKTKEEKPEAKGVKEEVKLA
Lab note - cut at 20 nM for IC50: y if strictly below, n if not.

Worked examples follow.
>>> print(df.to_string())
                                   compound  classification
0  O=C(/C=C/c1ccc(CN2CCC[C@H]2CN2CCc3ccccc32)cc1)NO [Cpd 19]               n
1  Cc1nn(C)c(C)c1C[C@H]1C[C@H](O)CN1Cc1ccc(/C=C/C(=O)NO)cc1 [Cpd 31]               y
2  Cc1nn(-c2ccccc2)c(C)c1C(O)[C@H]1C[C@H](O)CN1Cc1ccc(/C=C/C(=O)NO)cc1 (stereo partly drawn) [Cpd 34]               n
3  CC(C)CC1CCCN1Cc1ccc(/C=C/C(=O)NO)cc1 (stereo not drawn) [Cpd 5]               y
4  CO[C@@H]1C[C@H](Cc2c(C)[nH]c3ccccc23)N(Cc2ccc(/C=C/C(=O)NO)cc2)C1 [Cpd 24]               y
5  O=C(/C=C/c1ccc(CN2CCC[C@@H]2C(=O)c2c[nH]c3ccccc23)cc1)NO [Cpd 12]               n
6  CO[C@H]1C[C@H](Cc2c(C)[nH]c3ccccc23)N(Cc2ccc(/C=C/C(=O)NO)cc2)C1 [Cpd 25]               y
7  O=C(/C=C/c1ccc(CN2CCC[C@@H]2Cc2c[nH]c3ccccc23)c(F)c1)NO [Cpd 9]               y
8  Cc1[nH]c2ccccc2c1C[C@H]1CCCN1Cc1ccc(/C=C/C(=O)NO)cc1F [Cpd 10]               y
9  Cc1[nH]c2ccccc2c1C[C@H]1C[C@@H](O)CN1Cc1ccc(/C=C/C(=O)NO)cc1 [Cpd 20]               y

Could you please tell me whether IC50 recorded for Cc1[nH]c2ccccc2c1C[C@H]1C[C@H](O)CN1Cc1ccc(/C=C/C(=O)NO)cn1 [Cpd 28] is less than 20 nM?
y

Could you please tell me whether IC50 recorded for O=C(/C=C/c1ccc(CN2CCC[C@@H]2Cn2nc(C(F)(F)F)cc2C(F)(F)F)cc1)NO [Cpd 51] is less than 20 nM?
n

Could you please tell me whether IC50 recorded for O=C(/C=C/c1ccc(CN2CCC[C@@H]2Cc2c[nH]c3ccccc23)cc1)NO [Cpd 2] is less than 20 nM?
y

Could you please tell me whether IC50 recorded for O=C(/C=C/c1ccc(CN2CCC[C@H]2C(=O)N2CCc3ccccc32)cc1)NO [Cpd 18] is less than 20 nM?
n

----------
The following are reported IC50 results, target or system UniProtKB Q13547.
Use nM as the unit, but write only the number.

Some compounds with recorded IC50:
                      smiles_representation  target_or_test_system  assay_readout  endpoint_value
0  O=C(/C=C/c1ccc(CN2C[C@H](O)C[C@@H]2Cn2cc(-c3cccnc3)nn2)cc1)NO       UniProtKB Q13547           IC50             170
1  O=C(/C=C/c1ccc(CN2CCC[C@H]2Cc2c[nH]c3ccccc23)c(F)c1)NO       UniProtKB Q13547           IC50              10
2  O=C(/C=C/c1ccc(CN2CCC[C@@H]2Cn2cccn2)cc1)NO       UniProtKB Q13547           IC50              15

Entry under test: O=C(/C=C/c1ccc(CN2CCC[C@@H]2Cc2nc(-c3ccccc3)no2)cc1)NO . Its IC50 was 20
